- experiment: recombinant UMI read abundance after kanamycin selection (control-corrected) (log10(CPM+1)); higher = more efficient recombination; extreme values may be limits of the assay; sequences stand for … in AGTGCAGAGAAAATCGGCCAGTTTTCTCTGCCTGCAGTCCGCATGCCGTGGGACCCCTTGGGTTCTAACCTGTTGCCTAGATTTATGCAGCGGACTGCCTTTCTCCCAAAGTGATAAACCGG…AGGTTGGTTTCACT; site = the 11-nt donor
Please use met whenever recombinant UMI read abundance (log10) is not below 0.2, and not met whenever it is.

Field: example entries. Status: answers known.
TAGCTAGCATGGACCGGTTTTCCCGGTAATCCGTATTTGTA (site TAGCTAGCTTG) = met
GAGATAACATGGACCGGTTTTCCCGGTAATCCGTATTTGCG (site GAGATAACTCG) = met
CGAGTCCCATGGACCGGTTTTCCCGGTAATCCGTATTTGTG (site GTCAGTTCTAG) = not met
ATGAATTCATGGACCGGTTTTCCCGGTAATCCGTATTTGGT (site ATGAATTCTAC) = met
TACTTGACATGGACCGGTTTTCCCGGTAATCCGTATTTGCC (site TACTTGACTAG) = not met

stdin: Confirm if recombinant UMI read abundance (log10) reported for the sequence TAAAGACCATGGACCGGTTTTCCCGGTAATCCGTATTTGTA (site TAAAGTCCTTA) is 0.2 or above.
stdout: not met

stdin: Then what about the sequence AACTCAGCATGGACCGGTTTTCCCGGTAATCCGTATTTGGG (site ATCTCAGCTCC) ?
stdout: not met

stdin: CGATCGTCATGGACCGGTTTTCCCGGTAATCCGTATTTGCT (site CGATCTTCTAG) , same question.
stdout: not met

stdin: Repeat with TGCTAGGCATGGACCGGTTTTCCCGGTAATCCGTATTTGGT (site GGCTAGGCTAC)
stdout: not met

---

- experiment: recombinant barcode read abundance after kanamycin selection (control-corrected) (log10(CPM+1)); higher = more efficient recombination; sequences stand for … in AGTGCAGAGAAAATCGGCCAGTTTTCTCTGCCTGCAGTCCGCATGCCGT…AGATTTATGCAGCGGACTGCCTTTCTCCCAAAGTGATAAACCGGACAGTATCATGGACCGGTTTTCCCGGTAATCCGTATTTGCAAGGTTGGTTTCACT; site = the 11-nt target
Everything with recombinant barcode read abundance (log10) lower than 0.3 is Not satisfied; everything else, including exactly 0.3, is Satisfied.

Example entries begin here.
ACGCTGGCTTGGGTTCTAACCTGTTGCCT (site ACGCTGGCTAG) = Satisfied
GCCAGCTCTTGGGTTCTAACCTGTTGCTG (site CAATTTCCTAT) = Not satisfied
AAGGTCACTTGGGTTCTAACCTGTTGCCT (site AGGGTCACTAG) = Not satisfied
CTATCGCCTTGGGTTCTAACCTGTTGCCT (site CTATCGCCTAG) = Satisfied
GAGGAAGCTTGGGTTCTAACCTGTTGCCT (site GTGGAAGCTAG) = Satisfied

stdin: Please check the record GAGATCCCTTGGGTTCTAACCTGTTGCTG (site GAGATCCCTCA) and state if its recombinant barcode read abundance (log10) is at or above 0.3.
stdout: Satisfied

stdin: Now give it for AGAAGCCCTTGGGTTCTAACCTGTTGCCT (site ACAAGCCCTAG) too.
stdout: Not satisfied

stdin: Would you kindly repeat that for CTGGACACTTGGGTTCTAACCTGTTGCCT (site CTAGACACTAG) ?
stdout: Satisfied

stdin: Please do the same for AGACGTACTTGGGTTCTAACCTGTTGCGT (site AGACGTACTAC) as well.
stdout: Satisfied
